Test system: K4 kissing-loop RNA reporter;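 also: bound reporter read as fluorescence of individual clusters on recovered sequencing chips by microscopy, with normalized cluster intensities fitted with a binding model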
Assay: apparent KD of K4 kissing-loop reporter; higher = weaker reporter binding
Settings: Eterna round: R107; input ligand: theophylline 20 uM
Decide by apparent KD of K4 kissing-loop reporter: equal to or exceeding 400 nM means TRUE, less means FALSE.

entry_sequence="AAUAAAAUCACGGCCGCCACUGAAUAAUUACGAAGUAGUGAUGUUACUUCACAUAUCUUAUUUAACAGGACCGGGUGAAUAUUUA [#16 K4 Tryptophan B Exclusion]" assigned_class=FALSE

Problem: Identify whether the reported apparent KD of K4 kissing-loop reporter of the following sequence is 400 nM or greater: UAAGAGUCUCUGCAAUUAGCAGAGACUCAACGAGGACCGGUACGGCCGCCACUCGGGUCCUAGAGUGAUGUUCUAAUAAUAUAAU [AK1.1 SS Tryptophan A]
Solution: TRUE

Problem: Identify whether the reported apparent KD of K4 kissing-loop reporter of the following sequence is 400 nM or greater: `GGCUCCUACGGAGGAUAUAGUAGCCCAGAGUGAUGUUCUAGGGUGUUUUCCGAUUUAGUCAUUGUUCUAGAAGGCCGUAGGAGCC`
Solution: FALSE

Problem: Identify whether the reported apparent KD of K4 kissing-loop reporter of the following sequence is 400 nM or greater: `ACGUGCACUAGUGAUGUUAGAAAAUACGAAGGAGCGGGCGAAAGCCCAGGUAGGUCGCGUAAUAGCACGAGCCACGAAAGUGGCA`
Solution: TRUE

Problem: Identify whether the reported apparent KD of K4 kissing-loop reporter of the following sequence is 400 nM or greater: AGGGAUGAUGGAUAAAUAAACAAAGGAGAUACCAGUCAAAUAAUAGGCCCUUGGCAGCUUCAGAUCAGUGAUGUUGAAGAUAUUG [#09 K4 Theophylline A Same State]
Solution: FALSE

Problem: Identify whether the reported apparent KD of K4 kissing-loop reporter of the following sequence is 400 nM or greater: `UGCAUGCUUGGAGUGAUGUUCCAAGAUGAUACCAGUGCUUUUUUGCACCCUUGGCAGCGUCUGAUUGCAUGCACGUCGAAAGACG`
Solution: TRUE

Problem: Identify whether the reported apparent KD of K4 kissing-loop reporter of the following sequence is 400 nM or greater: GUAGGAUGAGGAGGAGGAUGAAUUACUGAAGGAGCGCAUAUAAAUGCAGGUAGGUCGCGGUAAAGAAGUAUAGUGAUGUUAUAUA [SSArgA.G]
Solution: TRUE

Problem: Identify whether the reported apparent KD of K4 kissing-loop reporter of the following sequence is 400 nM or greater: GCCAGAUAGACGGCCGCCACUUAUAAGUUUCAGUGAUGUUGGAACGGCAAAUGCCGAACACAAUAGAGGACCGGGUCAACUGGCG [Same State Tryptophan B GF 1]
Solution: TRUE

Problem: Identify whether the reported apparent KD of K4 kissing-loop reporter of the following sequence is 400 nM or greater: AAACCCAGUGAUGUUGGGAAUCAGUUGAGGGAGGAUAUUGGUAAUACAAGAAGGCCCGGCUGCGGGUGAUGUUCGCAUUAGGGCC [Exclusion FMN A GF17]
Solution: FALSE

Problem: Identify whether the reported apparent KD of K4 kissing-loop reporter of the following sequence is 400 nM or greater: GGAUAGGAUAGAGGAUAUGGAUUAGGCAAGAAUAACUUGUCUUGUAAAUCCAUGAGGAGUGAUGUUCCAGAAGGCUGUCCUAUCG [MatMod 6 - Jieux - Exclusion - FMN B]
Solution: FALSE

Problem: Identify whether the reported apparent KD of K4 kissing-loop reporter of the following sequence is 400 nM or greater: GUAGCACUUGACAGUGAUGUUGUCAAGGACAAGGAUAUCAUCUCAAUGAGAAGGUGUCCUUGAUAACAGCUACGGGAAUAUCCCA [Omei KL FMN A Exc D v3]
Solution: FALSE

---

System: MS2 coat protein
Assay: apparent KD of MS2 coat protein; designed switch direction (-1 OFF switch, 1 ON switch): 1; higher = weaker reporter binding
Details: Eterna round: R95; input ligand: FMN 200 uM
Collected apparent KD of MS2 coat protein values appear next to each entry.
The reply should read as a number followed by its unit.

entry_sequence="GGGAGACAUGAGGAUCACCCAUGUGGGAGGGAACGAGGAUAUGUAAGGAGAGAGAAUAGAACAGAAGGCGUAGGUG [JR_SS1_Sub022] (puzzle: Same State 1)" result="50 nM"
entry_sequence="UUUAGUUGCGCGCAGGAUAUGUAUUAAUAUACAUGAGGAUCACCCAUGUGAGACCAAAUAGGUCUACAGAAGGGCGAAUCGCGAC [Laonerce - 29] (puzzle: Same State 2)" result="29.4 nM"
entry_sequence="AUUAAACAUGAGGAUCACCCAUGUCAACAUAGUCGAGGAUAUGGGCAAAUAAAAUAAGAACCAGAAGGCGAAUAAU [salish99_ss1_r3_075] (puzzle: Same State 1)" result="45.2 nM"
entry_sequence="AUAAAACAUGAGGAUCACCCAUGUCAACAAAGUCGAGGAUAUGGGCAAAUUAAAUAAGAACCAGAAGGCGAAUAAU [salish99_ss1_r3_024] (puzzle: Same State 1)" result="33.3 nM"

API: the following record is the query input.
Problem: Return the recorded apparent KD of MS2 coat protein value; entry: ACGCAGCUGGGUAAGGAUAUCGGUGGUAAAACAUGAGGAUCACCCAUGUCCGAAGCUCGGACUUCCGAGAAGGUGCCCGGCUGCG [Soinraesar Omei Mod 6] (puzzle: Same State 2)
Solution: 23.8 nM

---

System: MS2 coat protein
Assay: apparent KD of MS2 coat protein; higher = weaker reporter binding
Settings: Eterna round: R107; input ligand: tryptophan 2.4 mM
Collected apparent KD of MS2 coat protein values appear next to each entry.
The figure you give is taken to be in nM; do not add the unit.

entry_sequence="GACCUUAUCUGAAGGAGCGAGGUAAAUAGGGUUGAGCAUACAUGAGGAUCACCCAUGUGGCCUCAGGUAGGUCGCAGAUAAGACA [Exclusion Arginine B GF29]" measurement_units=nM result_number=137
entry_sequence="UAGACGGCCGGAAGGAGCGGUACAUGAGGAUCACCCAUGUAUCCCUGGGCAUCCGUAGUGUGCCAGGUAGGUCGCCGGUUGCGGG [XArg-B21]" measurement_units=nM result_number=15.9
entry_sequence="AUAACAUGAGGAUCACCCAUGUAAGCUGAAGGAGCGCUGGAAACAGCAGGUAGGUCGCAGCUACCUACCACCUCAUGAGGUAGGU [(M1)-(M2)-(Arg1)-(Arg2)-(A)'-(M)'-(A)''_Design6]" measurement_units=nM result_number=19
entry_sequence="AUUAUCAUGGUCAUAUAUAUUUCGUCAGAUACCAGACUAGAUAUAGUCCCUUGGCAGCUGUUACAUGAGGAUCACCCAUGUUAUU [JR_ExcTheophyA_Sub017]" measurement_units=nM result_number=96.3
entry_sequence="ACAUGAGGAUCACCCAUGUAUUCAUCAGAAGGAGCGUGGAAUAACACAGGUAGGUCGCUGAUUAUUUGUUAAAUAAAUUCGUGUA [JR_Nu_SSArginiA_Sub023]" measurement_units=nM result_number=16.4

Problem: Return the recorded apparent KD of MS2 coat protein value; entry: ACGUAAUGCAGAAGGAGCGUCAACCUCUUACAUGAGGAUCACCCAUGUUACAUGGUUGUAUGACAGGUAGGUCGCUGAAGUACGA [JR_ExcArginiB_Sub001]
Solution: 36.6

Problem: Return the recorded apparent KD of MS2 coat protein value; entry: GGCACCGGGCGAAGGAGCGUGAAGACAUGAGGAUCACCCAUGUAGAGGCCCGGACAGGGUUCGCAGGUAGGUCGCGCGCGGUGCC [#1 Same State - Arginine B Attempt #8 (HarryS)]
Solution: 16.9

Problem: Return the recorded apparent KD of MS2 coat protein value; entry: UAUAUAGUGAUGGAUACCAGCAGAGAAAACGUUUAUCCUAACAUGAGGAUCACCCAUGUAUGCCCUUGGCAGCUGUUGUUAUAUA [8.L]
Solution: 21.4

Problem: Return the recorded apparent KD of MS2 coat protein value; entry: AAAGAUUCCUGAACGCCGCAUACCGAUGAUACCAGCCAACGGAAAGGCCCUUGGCAGCAUUAAACAUGAGGAUCACCCAUGUCUA [theeternabot_exclusion_MS2_Theo_A_43]
Solution: 12.1

Problem: Return the recorded apparent KD of MS2 coat protein value; entry: UCGUGUAUAACGGAUACCAGUGAGAAGGAUACAUGAGGAUCACCCAUGUGAGUUGAUCCACACCCUUGGCAGCUGUAUAUAUCUA [alamullin]
Solution: 290

Problem: Return the recorded apparent KD of MS2 coat protein value; entry: UGACAUUGCUCAGAUACCAGACAUGAGGAUCACCCAUGUGCCAAACGUACAAUAAUAAAUGUCCCUUGGCAGCUGAGCAAUGUCU [TheoBX 14 #MS2Left #Theo2]
Solution: 11.6
